- Test: Clearance in Sprague-Dawley rat at 1 mg/kg, iv by LC-MS/MS analysis
- Format: ADME, organism-based
- Assay Context: in vivo
Measure Name: clearance (mL/min/kg)
API: value field is a number in mL/min/kg; no unit string.

Item Cc1ccc(F)c2cc(C(=O)N[C@@H]3CCC[C@H](N4CCN5C(=O)CC[C@H]5C4)C3)[nH]c12 has what recorded clearance?
14

---

- Test: AUC in CD-1 IGS mouse at 50 mg/kg, po by LC-MS/MS analysis
- Assay type: ADME, organism-based
- Parameters: dose 50 mg/kg, route po
- Assay Context: in vivo
Measure Name: AUC(0-inf) (ng·h/mL)
Quick note: give the figure in ng·h/mL, leave out the unit.

| Compound | AUC(0-inf) [ng·h/mL] |
| --- | --- |
| Cc1ccc(F)c2cc(C(=O)N[C@@H]3CCC[C@H](N4CCN5C(=O)CC[C@H]5C4)C3)[nH]c12 | 14000 |
| CC(=O)N1CCN([C@H]2CCC[C@@H](NC(=O)c3cc4c(F)ccc(C)c4[nH]3)C2)CC1 [EZM-0414] | 27000 |

# context switch: different compound, same AUC(0-inf)
Look up AUC(0-inf): CC(=O)N1CCN(c2cccc(NC(=O)c3cc4c(F)ccc(C)c4[nH]3)c2)CC1
1600
